Taken from patent US12421225B2.

- SYSTEM: human Nav1.7 (Homo sapiens (Human), UniProt Q15858)
- Sequence (Q15858 whole entry): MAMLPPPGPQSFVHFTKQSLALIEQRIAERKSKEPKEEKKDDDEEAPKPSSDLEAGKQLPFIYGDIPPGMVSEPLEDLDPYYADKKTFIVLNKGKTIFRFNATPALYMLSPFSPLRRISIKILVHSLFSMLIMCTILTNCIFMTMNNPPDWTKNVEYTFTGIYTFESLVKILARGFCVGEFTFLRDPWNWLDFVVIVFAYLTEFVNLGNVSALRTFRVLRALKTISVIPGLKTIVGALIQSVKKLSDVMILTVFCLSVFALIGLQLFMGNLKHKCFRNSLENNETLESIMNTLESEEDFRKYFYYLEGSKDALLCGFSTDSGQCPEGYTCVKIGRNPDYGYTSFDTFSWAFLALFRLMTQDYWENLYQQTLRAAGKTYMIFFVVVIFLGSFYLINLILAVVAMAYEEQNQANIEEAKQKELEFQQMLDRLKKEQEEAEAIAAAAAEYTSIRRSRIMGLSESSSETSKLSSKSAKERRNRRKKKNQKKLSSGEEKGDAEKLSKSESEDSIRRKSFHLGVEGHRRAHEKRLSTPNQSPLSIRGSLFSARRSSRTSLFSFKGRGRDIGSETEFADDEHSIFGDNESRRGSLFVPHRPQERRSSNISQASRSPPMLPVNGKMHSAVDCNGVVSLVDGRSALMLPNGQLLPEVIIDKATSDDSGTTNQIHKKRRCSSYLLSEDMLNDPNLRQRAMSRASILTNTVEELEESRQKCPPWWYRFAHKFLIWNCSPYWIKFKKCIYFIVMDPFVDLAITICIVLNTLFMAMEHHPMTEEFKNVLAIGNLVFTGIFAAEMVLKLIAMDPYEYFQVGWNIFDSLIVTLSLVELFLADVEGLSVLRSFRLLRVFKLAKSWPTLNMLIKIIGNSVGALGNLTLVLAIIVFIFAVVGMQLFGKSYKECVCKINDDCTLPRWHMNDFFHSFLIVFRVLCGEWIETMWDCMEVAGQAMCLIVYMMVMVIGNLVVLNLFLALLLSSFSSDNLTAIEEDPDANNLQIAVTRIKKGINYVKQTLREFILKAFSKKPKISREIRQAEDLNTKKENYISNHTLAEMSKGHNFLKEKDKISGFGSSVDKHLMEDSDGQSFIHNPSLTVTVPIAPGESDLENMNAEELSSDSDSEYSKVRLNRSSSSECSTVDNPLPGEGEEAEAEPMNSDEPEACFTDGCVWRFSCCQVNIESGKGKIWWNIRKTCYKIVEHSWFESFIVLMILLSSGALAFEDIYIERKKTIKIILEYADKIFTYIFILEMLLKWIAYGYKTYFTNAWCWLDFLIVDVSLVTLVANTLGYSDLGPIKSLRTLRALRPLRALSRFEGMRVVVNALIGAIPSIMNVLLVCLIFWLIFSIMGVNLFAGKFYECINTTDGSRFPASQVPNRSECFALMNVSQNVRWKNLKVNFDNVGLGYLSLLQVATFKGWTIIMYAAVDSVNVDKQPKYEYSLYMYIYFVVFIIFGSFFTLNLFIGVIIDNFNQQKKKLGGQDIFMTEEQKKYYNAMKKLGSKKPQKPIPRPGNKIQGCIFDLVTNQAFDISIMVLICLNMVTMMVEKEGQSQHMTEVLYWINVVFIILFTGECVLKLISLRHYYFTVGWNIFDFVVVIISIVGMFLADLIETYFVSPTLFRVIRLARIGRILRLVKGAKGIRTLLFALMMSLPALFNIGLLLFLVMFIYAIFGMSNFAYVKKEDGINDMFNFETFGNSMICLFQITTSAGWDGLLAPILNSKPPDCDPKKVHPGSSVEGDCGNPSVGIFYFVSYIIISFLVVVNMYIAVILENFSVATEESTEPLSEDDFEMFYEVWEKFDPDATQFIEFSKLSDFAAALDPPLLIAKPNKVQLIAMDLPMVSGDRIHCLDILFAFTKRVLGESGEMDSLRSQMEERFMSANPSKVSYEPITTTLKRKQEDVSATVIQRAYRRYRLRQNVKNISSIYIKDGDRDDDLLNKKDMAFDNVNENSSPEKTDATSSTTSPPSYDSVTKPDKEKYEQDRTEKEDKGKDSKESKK
- Sequence (Q07699 19-218 partner): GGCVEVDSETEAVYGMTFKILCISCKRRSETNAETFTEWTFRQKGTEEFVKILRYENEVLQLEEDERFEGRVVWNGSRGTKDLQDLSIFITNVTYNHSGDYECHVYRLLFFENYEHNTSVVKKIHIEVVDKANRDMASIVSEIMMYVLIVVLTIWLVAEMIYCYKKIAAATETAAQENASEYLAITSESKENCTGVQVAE
- ASSAY_NAME: Human Nav1.7 inhibitory activity evaluation (automated patch clamp QPatch16X, HEK293A cells stably expressing human Nav1.7 and human Navβ1)
- Type: cell-based
- ASSAY_CONTEXT: human Nav1.7, automated patch clamp
pIC50: −log10 of the molar value.
# pIC50 listing for each entry below
OBSERVATION_TYPE: pIC50

compound="O=C(N[C@H]1COc2ccc(C(F)(F)F)cc2C1O)c1cc2n(n1)C[C@H](COCC1CC1)O2 (single isomer, unassigned; isomer a) [576(isomer A)]" system="human Nav1.7 (Homo sapiens (Human), UniProt Q15858)" result="> 6.00"
compound="CCOCc1cccc2c1CC(NC(=O)c1cn3c(n1)CCC(C(F)(F)F)C3)CO2 (centres unmarked)" system="human Nav1.7 (Homo sapiens (Human), UniProt Q15858)" result="> 5.00"
compound="O=C(N[C@H]1COc2ccc(C(F)(F)F)cc2C1F)c1cc2n(n1)CCC(COCC(F)(F)F)CO2 (some centres unmarked)" system="human Nav1.7 (Homo sapiens (Human), UniProt Q15858)" result="> 6.00"
compound="O=C(N[C@H]1COc2ccc(Cl)cc2C1)c1cc2n(n1)CC(COCC1CC1)O2 (some centres unmarked)" system="human Nav1.7 (Homo sapiens (Human), UniProt Q15858)" result="> 6.00"
compound="O=C(N[C@H]1COc2ccc(COCC(F)(F)F)cc2C1)c1cc2n(n1)CCC(C(F)F)O2 (some centres unmarked) [Example 162]" system="human Nav1.7 (Homo sapiens (Human), UniProt Q15858)" result="> 6.00"
compound=N#Cc1ccc2c(c1)C[C@@H](NC(=O)c1cc3n(n1)CCC1(CCC1)O3)CO2 system="human Nav1.7 (Homo sapiens (Human), UniProt Q15858)" result="> 5.00"
compound="Cc1cnc(-c2ccc3c(c2)C[C@@H](NC(=O)c2cc4n(n2)CC(COCC(F)(F)F)O4)CO3)cn1 (some centres unmarked) [Example 193]" system="human Nav1.7 (Homo sapiens (Human), UniProt Q15858)" result="> 5.00"
compound=N#Cc1ccc2c(c1)C[C@@H](NC(=O)c1cc3n(n1)CCN(C1(CC(F)(F)F)CC1)C3)CO2 system="human Nav1.7 (Homo sapiens (Human), UniProt Q15858)" result="> 5.00"
compound="COc1ncc(-c2ccc3c(c2)C[C@@H](NC(=O)c2cc4n(n2)CC(CCOCC2CC2)O4)CO3)cn1 (mixture of isomers) [Example 203]" system="human Nav1.7 (Homo sapiens (Human), UniProt Q15858)" result="> 6.00"
compound="O=C(N[C@H]1COc2ccc(Cl)cc2C1)c1cc2n(n1)CCC(C(F)F)O2 (single isomer, unassigned) [158 (isomer A)]" system="human Nav1.7 (Homo sapiens (Human), UniProt Q15858)" result="> 6.00"
compound="O=C(N[C@H]1COc2ccc(C(F)(F)F)cc2C1)c1cc2n(n1)CCC(COCC(F)(F)F)O2 (some centres unmarked)" system="human Nav1.7 (Homo sapiens (Human), UniProt Q15858)" result="> 6.00"
compound="O=C(N[C@H]1COc2ccc(C(F)(F)F)cc2C1O)c1cc2n(n1)CCC(OCCOCC(F)(F)F)CO2 (single isomer, unassigned)" system="human Nav1.7 (Homo sapiens (Human), UniProt Q15858)" result="> 5.00"
compound="O=C(N[C@H]1COc2ccc(C(F)(F)F)cc2C1F)c1cc2n(n1)CCC(OCC(F)(F)F)CO2 (some centres unmarked)" system="human Nav1.7 (Homo sapiens (Human), UniProt Q15858)" result="> 6.00"
compound="O=C(N[C@H]1COc2ccc(Cl)cc2C1)c1cc2n(n1)CC(CCN1CC(F)(F)C1)O2 (some centres unmarked) [Example 233]" system="human Nav1.7 (Homo sapiens (Human), UniProt Q15858)" result="> 6.00"
compound="O=C(c1cc2n(n1)CCC(c1ccccc1)O2)N1CCC(c2cccc(C(F)(F)F)c2)C1 (centres unmarked)" system="human Nav1.7 (Homo sapiens (Human), UniProt Q15858)" result="> 5.00"
compound="O=C(N[C@H]1COc2ccc(Cl)cc2C1)c1cc2n(n1)CCC(CC(F)F)O2 (some centres unmarked)" system="human Nav1.7 (Homo sapiens (Human), UniProt Q15858)" result="> 6.00"
compound=COc1cc(C2(N3CCn4nc(C(=O)N[C@H]5COc6ccc(C#N)cc6C5)cc4C3)CC2)ccn1 system="human Nav1.7 (Homo sapiens (Human), UniProt Q15858)" result="> 5.00"
compound="N#Cc1ccc2c(c1)C[C@@H](NC(=O)c1cc3n(n1)CCC(COCCC(F)(F)F)O3)CO2 (some centres unmarked)" system="human Nav1.7 (Homo sapiens (Human), UniProt Q15858)" result="> 5.00"
compound=O=C(N[C@H]1COc2ccc(COCC(F)(F)F)cc2C1)c1cc2n(n1)CCN(CCOC1CCC1)C2 system="human Nav1.7 (Homo sapiens (Human), UniProt Q15858)" result="> 6.00"
compound=O=C(N[C@H]1COc2ccc(C(F)(F)F)cc2C1)c1nn2c(c1-c1ccn[nH]1)OCCC2 system="human Nav1.7 (Homo sapiens (Human), UniProt Q15858)" result="> 6.00"
compound=N#Cc1ccc2c(c1)C[C@@H](NC(=O)c1cc3n(n1)CCN(CCc1ccc(F)cc1)C3)CO2 system="human Nav1.7 (Homo sapiens (Human), UniProt Q15858)" result="> 6.00"
compound="O=C(N[C@H]1COc2ccc(Cl)cc2C1)c1cc2n(n1)CC(COCCOCC(F)(F)F)O2 (some centres unmarked)" system="human Nav1.7 (Homo sapiens (Human), UniProt Q15858)" result="> 6.00"
compound="COc1ncc(-c2ccc3c(c2)C[C@@H](NC(=O)c2cc4n(n2)CCC(C(F)(F)F)O4)CO3)cn1 (some centres unmarked)" system="human Nav1.7 (Homo sapiens (Human), UniProt Q15858)" result="> 5.00"
compound="Cn1cc(-c2ccc3c(c2)C[C@@H](NC(=O)c2cc4n(n2)CC(CCOC(F)F)O4)CO3)cn1 (single isomer, unassigned) [221 (isomer B)]" system="human Nav1.7 (Homo sapiens (Human), UniProt Q15858)" result="> 6.00"
compound="CC1Oc2cc(C(=O)N[C@H]3COc4ccc(Cl)cc4C3)nn2CC1(F)F (some centres unmarked)" system="human Nav1.7 (Homo sapiens (Human), UniProt Q15858)" result="> 5.00"
compound="O=C(N[C@H]1COc2ccc(Cl)cc2C1)c1cc2n(n1)CCC(C(F)(F)F)O2 (single isomer, unassigned) [170 (isomer A)]" system="human Nav1.7 (Homo sapiens (Human), UniProt Q15858)" result="> 6.00"
compound="O=C(N[C@H]1COc2ccc(C(F)(F)F)cc2C1)c1cc2n(n1)CC(CCNCC(F)(F)F)O2 (some centres unmarked) [Example 229]" system="human Nav1.7 (Homo sapiens (Human), UniProt Q15858)" result="> 6.00"
compound="O=C(N[C@H]1COc2ccc(C(F)(F)F)cc2C1)c1cc2n(n1)CC(CCNCC(F)(F)F)O2 (single isomer, unassigned) [230 (isomer B)]" system="human Nav1.7 (Homo sapiens (Human), UniProt Q15858)" result="> 5.00"
compound="O=C(N[C@H]1COc2ccc(CC(F)F)cc2C1)c1cc2n(n1)CC(CCOCC(F)F)O2 (some centres unmarked)" system="human Nav1.7 (Homo sapiens (Human), UniProt Q15858)" result="> 6.00"

---

- SYSTEM: UniProt Q15858
- ASSAY_NAME: Human Nav1.7 inhibitory activity evaluation (automated patch clamp QPatch16X, HEK293A cells stably expressing human Nav1.7 and human Navβ1)
- Type: cell-based
- ASSAY_CONTEXT: human Nav1.7, automated patch clamp
pIC50: −log10 of the molar value.
OBSERVATION_TYPE: pIC50

molecule="O=C(N[C@H]1COc2ccc(Cl)cc2C1)c1cc2n(n1)CCC(CF)O2 (stereo partly drawn)" observation_type=pIC50 result="> 5.00"
molecule="N#Cc1ccc2c(c1)C[C@@H](NC(=O)c1cc3n(n1)CC(CCCOCC(F)(F)F)O3)CO2 (single isomer, unassigned) [246 (isomer A)]" observation_type=pIC50 result="> 6.00"
molecule="O=C(N[C@H]1COc2ccc(COCC(F)(F)F)cc2C1)c1cc2n(n1)CC(COCC(F)(F)F)O2 (single isomer, unassigned) [188 (isomer A)]" observation_type=pIC50 result="> 6.00"

---

- SYSTEM: human Nav1.5 (Homo sapiens (Human))
- Sequence (Q14524 whole entry): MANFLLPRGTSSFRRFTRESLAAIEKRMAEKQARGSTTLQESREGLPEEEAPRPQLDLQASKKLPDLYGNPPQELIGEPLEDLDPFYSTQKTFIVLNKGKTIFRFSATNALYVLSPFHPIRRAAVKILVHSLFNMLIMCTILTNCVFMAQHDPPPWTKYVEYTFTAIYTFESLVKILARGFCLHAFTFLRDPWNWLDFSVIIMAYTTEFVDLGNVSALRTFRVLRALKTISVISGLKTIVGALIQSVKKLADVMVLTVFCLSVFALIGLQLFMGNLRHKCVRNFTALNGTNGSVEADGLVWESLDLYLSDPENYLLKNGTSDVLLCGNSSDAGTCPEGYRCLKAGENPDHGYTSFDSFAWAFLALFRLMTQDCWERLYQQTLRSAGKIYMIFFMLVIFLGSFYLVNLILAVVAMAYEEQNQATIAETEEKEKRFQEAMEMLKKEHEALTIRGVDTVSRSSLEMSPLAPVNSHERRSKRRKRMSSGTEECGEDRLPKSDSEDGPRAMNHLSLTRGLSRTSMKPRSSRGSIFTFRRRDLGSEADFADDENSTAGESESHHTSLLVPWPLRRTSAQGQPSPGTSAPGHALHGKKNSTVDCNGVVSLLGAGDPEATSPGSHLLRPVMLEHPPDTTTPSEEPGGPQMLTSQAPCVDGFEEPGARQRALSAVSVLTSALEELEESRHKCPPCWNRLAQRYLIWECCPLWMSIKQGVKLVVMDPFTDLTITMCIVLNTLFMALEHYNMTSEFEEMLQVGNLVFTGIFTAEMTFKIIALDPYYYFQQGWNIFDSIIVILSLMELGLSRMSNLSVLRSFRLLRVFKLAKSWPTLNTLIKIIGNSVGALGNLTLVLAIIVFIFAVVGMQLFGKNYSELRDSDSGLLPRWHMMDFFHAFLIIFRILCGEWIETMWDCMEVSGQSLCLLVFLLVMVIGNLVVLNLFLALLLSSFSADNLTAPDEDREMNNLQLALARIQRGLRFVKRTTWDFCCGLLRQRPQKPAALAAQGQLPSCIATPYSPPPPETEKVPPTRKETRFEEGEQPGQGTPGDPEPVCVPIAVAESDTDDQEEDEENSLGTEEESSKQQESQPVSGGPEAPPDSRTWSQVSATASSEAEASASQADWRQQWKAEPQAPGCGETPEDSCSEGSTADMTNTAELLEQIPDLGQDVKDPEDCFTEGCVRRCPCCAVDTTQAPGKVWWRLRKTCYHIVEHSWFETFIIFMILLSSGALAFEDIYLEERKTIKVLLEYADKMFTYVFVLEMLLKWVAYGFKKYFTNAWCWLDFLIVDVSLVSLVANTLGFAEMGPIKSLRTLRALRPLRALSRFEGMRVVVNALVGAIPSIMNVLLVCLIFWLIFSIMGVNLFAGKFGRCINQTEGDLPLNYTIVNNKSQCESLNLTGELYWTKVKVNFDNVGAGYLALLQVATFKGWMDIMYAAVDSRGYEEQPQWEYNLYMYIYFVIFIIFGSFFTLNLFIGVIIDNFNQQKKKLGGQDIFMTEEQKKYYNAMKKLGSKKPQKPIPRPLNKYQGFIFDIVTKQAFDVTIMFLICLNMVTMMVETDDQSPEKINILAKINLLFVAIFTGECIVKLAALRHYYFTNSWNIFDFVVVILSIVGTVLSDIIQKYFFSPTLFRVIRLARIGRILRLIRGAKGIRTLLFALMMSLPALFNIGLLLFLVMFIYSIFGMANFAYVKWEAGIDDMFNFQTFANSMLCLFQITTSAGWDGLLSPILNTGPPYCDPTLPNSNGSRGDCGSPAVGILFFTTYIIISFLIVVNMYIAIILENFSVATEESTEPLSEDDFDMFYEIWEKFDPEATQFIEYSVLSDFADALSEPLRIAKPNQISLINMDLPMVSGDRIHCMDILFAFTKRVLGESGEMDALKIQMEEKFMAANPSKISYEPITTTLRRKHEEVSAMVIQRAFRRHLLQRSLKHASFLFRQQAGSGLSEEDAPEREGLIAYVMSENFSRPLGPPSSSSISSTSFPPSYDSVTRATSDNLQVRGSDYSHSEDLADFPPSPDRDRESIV
- ASSAY_NAME: Human Nav1.5 inhibitory activity evaluation (automated patch clamp QPatch16X, HEK293 cells stably expressing human Nav1.5)
- Assay type: cell-based
- ASSAY_CONTEXT: human Nav1.5, automated patch clamp
OBSERVATION_TYPE: IC50

molecule="O=C(N[C@H]1COc2ccc(C(F)(F)F)cc2C1)c1cc2n(n1)CCC(OCC(F)(F)F)CO2 (single isomer, unassigned) [257 (isomer B)]" result="≥ 3 µM"
molecule=O=C(N[C@H]1COc2ccc(C(F)(F)F)cc2C1)c1nn2c(c1-c1ccccn1)CN(CC(F)(F)F)CC2 result="< 1 µM"
molecule="O=C(N[C@H]1COc2ccc(C(F)(F)F)cc2C1O)c1cc2n(n1)CCC(COCC(F)(F)F)CO2 (single isomer, unassigned)" result="≥ 3 µM"
molecule="O=C(N[C@H]1COc2ccc(-c3ccccn3)cc2C1)c1cc2n(n1)CCC(C(F)(F)F)O2 (stereo partly shown)" result="≥ 3 µM"
molecule=O=C(N[C@H]1COc2ccccc2C1)c1cc2n(n1)CCN(S(=O)(=O)c1cccc(C(F)(F)F)c1)C2 result="≥ 3 µM"
molecule="O=C(N[C@H]1COc2ccc(Cl)cc2C1)c1cc2n(n1)CCC(c1ccnc(C(F)(F)F)c1)O2 (stereo partly shown)" result="≥ 3 µM"
molecule="O=C(N[C@H]1COc2ccc(COCC(F)(F)F)cc2C1)c1cc2n(n1)CC(COCC1CC1)O2 (single isomer, unassigned) [186 (isomer B)]" result="1 to 3 µM"
